- test_system: Integrin alpha-4/beta-1 (Homo sapiens, UniProt P05556+P13612)
- Sequence (P05556 whole entry): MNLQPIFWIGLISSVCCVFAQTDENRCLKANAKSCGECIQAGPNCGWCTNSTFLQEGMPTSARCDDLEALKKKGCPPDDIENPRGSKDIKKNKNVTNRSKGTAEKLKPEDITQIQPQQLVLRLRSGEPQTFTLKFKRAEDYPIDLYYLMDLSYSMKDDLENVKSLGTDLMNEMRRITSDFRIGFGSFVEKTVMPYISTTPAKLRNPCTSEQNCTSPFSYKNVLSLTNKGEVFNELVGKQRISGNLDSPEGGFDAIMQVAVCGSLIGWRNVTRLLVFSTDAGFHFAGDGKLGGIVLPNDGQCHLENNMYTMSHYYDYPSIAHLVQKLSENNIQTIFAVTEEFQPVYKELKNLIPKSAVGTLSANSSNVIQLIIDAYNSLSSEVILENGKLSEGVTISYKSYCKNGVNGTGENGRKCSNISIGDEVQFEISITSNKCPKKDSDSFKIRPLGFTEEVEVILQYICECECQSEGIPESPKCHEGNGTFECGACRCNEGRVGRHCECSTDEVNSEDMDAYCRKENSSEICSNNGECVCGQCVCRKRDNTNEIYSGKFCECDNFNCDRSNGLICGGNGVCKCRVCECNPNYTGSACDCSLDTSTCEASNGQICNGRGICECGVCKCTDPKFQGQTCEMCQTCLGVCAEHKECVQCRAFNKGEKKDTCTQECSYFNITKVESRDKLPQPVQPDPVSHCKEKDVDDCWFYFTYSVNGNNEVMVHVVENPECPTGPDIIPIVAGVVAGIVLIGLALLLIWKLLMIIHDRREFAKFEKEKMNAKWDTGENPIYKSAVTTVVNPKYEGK
- Sequence (P13612 whole entry): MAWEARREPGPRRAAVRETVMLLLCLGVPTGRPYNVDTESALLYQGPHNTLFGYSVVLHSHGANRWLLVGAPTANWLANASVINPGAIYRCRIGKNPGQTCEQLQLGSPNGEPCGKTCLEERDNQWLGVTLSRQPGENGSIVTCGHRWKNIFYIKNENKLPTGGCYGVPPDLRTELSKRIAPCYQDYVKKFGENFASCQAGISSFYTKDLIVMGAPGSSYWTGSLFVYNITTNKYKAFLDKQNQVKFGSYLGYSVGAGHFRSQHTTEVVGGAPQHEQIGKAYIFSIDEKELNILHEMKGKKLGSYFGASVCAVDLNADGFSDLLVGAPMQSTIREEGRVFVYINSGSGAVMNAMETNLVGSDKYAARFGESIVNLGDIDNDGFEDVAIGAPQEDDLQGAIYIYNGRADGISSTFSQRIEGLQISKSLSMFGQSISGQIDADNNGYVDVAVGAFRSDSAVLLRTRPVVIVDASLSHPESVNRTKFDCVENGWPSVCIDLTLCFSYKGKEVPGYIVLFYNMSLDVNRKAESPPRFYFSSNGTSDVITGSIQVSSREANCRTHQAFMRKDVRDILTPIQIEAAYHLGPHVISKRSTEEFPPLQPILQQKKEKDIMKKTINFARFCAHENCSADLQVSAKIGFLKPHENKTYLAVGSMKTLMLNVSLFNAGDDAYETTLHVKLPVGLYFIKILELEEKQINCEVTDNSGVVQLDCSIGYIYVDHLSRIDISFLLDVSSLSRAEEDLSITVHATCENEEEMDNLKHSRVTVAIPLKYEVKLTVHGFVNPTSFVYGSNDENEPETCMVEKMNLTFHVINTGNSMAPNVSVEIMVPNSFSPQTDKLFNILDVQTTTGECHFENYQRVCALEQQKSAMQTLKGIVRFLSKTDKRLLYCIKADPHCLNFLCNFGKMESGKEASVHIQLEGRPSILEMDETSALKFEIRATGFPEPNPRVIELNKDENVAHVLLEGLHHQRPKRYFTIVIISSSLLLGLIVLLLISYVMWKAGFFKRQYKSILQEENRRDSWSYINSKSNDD
- assay_protocol: Inhibition of human VCAM and Ramos cell VLA-4 interaction
- Type: cell-based
reported_endpoint: IC50 (nM)

// below: answered compounds
O=C(O)[C@H](Cc1ccc(N2C(=O)CC(c3ccccc3)C2=O)cc1)NC(=O)[C@@H]1CCC(=O)N1Cc1ccccc1 (stereo not given in full) = 92
O=C(O)[C@H](Cc1ccc(N2C(=O)c3ccccc3C2=O)cc1)NC(=O)[C@@H]1CCC(=O)N1Cc1ccccc1 = 20
O=C(O)[C@H](Cc1ccc(N2C(=O)CCC2=O)cc1)NC(=O)[C@@H]1CCC(=O)N1Cc1ccccc1 = 286

(A) O=C(O)[C@H](Cc1ccc(N2C(=O)CC(c3ccc(O)cc3)C2=O)cc1)NC(=O)[C@@H]1CCC(=O)N1Cc1ccccc1 (stereo not given in full)
(B) O=C(O)[C@H](Cc1ccc(N2C(=O)Cc3ccccc3C2=O)cc1)NC(=O)[C@@H]1CCC(=O)N1Cc1ccccc1
Query :: Between A and B , which one shows the smaller IC50 number? Respond with the label that goes with your answer.
Result :: B
